Data provenance is PubChem BioAssay (NCI).

Tested on: LXFL 529 NSCLC
assay-comment: NCI tumour cell line growth inhibition, 48 h
Documented TGI across a set of molecules
Respond with the bare value in µM.

Example molecules with recorded TGI:
molecule: CC[C@]12C=CCN3CCC4(c5cc([C@@]6(C(=O)OC)CC7CN(CCc8c6[nH]c6ccccc86)C[C@@H]6CCCC[C@H]76)c(OC)cc5N(C)C4[C@](O)(C(=O)OC)C1OC(C)=O)[C@@H]32 (stereo not given in full)
val: 1.71

molecule: CCOc1ccc(/C=C/c2cc(OC)c(OC)c(OC)c2)cc1
val: 15.1

molecule: C=CC(=O)NC(N)=NC#N
val: 250

Fill in: TGI on LXFL 529 NSCLC, entry CC[C@@]1(O)C(=O)OCc2c1cc1n(c2=O)Cc2cc3ccccc3nc2-1
3.54
